Attribution: PubChem BioAssay

# Assay Protocol: basal 3T3-L1 adipocyte mitochondrial potential changes, profiling panel, cell-based, JC-1 fluorescence, 3T3-L1 adipocytes, 24 h, 100 nL compound (AID 1168); note: test concentration not given here
# Test Settings: JC-1 mitochondrial fluorescence, higher = more signal, called active from +8 up or from −8 down
We use 0.2 as the dividing line for z-score: on or above the line is 1 (yes), below is 0 (no).

Say whether `CC(C)C(=C=CC[C@H](O)c1ccc(OCCO)cc1)C[C@H](O)c1cc(Cl)cc(Cl)c1O` shows z-score of 0.2 or more.
0 (no)

Does z-score meet or surpass 0.2 for `CC(=O)NCCCC[C@@H]1NC(=O)[C@@H]2C[C@H](C(=O)O)[C@H](c3ccc(O)cc3)N2C1=O` ?
0 (no)

Quick check, z-score >= 0.2? `COc1ccc(C#Cc2ccc3c(c2)[C@]2(C(=O)N3)[C@H](C(=O)N3CCc4cc(OC)c(OC)cc4C3)[C@H]3C(=O)O[C@H](c4ccccc4)[C@H](c4ccccc4)N3[C@@H]2c2ccc(O)cc2)cc1`
1 (yes)

Confirm if z-score reported for the molecule `C=CCOC(=O)[C@@H]1[C@H]2C(=O)O[C@H](c3ccccc3)[C@H](c3ccccc3)N2[C@H](c2ccc(OCCOC(=O)[C@H]3C[C@H]4C(=O)N[C@@H](CCCC[N+](C)(C)C)C(=O)N4[C@H]3c3ccc(O)cc3)cc2)[C@@]12C(=O)Nc1ccc(I)cc12` is 0.2 or above.
0 (no)

Check this molecule for z-score at or above 0.2: `COCCCNC(=O)[C@@]1(Sc2ccc(C)cc2)CC(=O)N(C2Cc3ccccc3C2)[C@@H]1c1ccc(CO)cc1I`
0 (no)

Would you say `[N-]=[N+]=Nc1ccccc1C[C@@]1(C(=O)O)N=C(c2ccc(OCCCO)cc2)O[C@@H]1c1ccccc1` shows z-score at minimum 0.2?
0 (no)
